SYSTEM NAME: T1, Glypican 3 Protein, Human, Recombinant (His Tag) (Sino Biological, Cat #10088-H08H) (human, UniProt P51654 25-559)
T1 construct: Bought recombinant protein; also called Hu-GPC3 (10088-H08H); human GPC3; not shown: His tag
T1 sequence (P51654 25-559 limits assumed): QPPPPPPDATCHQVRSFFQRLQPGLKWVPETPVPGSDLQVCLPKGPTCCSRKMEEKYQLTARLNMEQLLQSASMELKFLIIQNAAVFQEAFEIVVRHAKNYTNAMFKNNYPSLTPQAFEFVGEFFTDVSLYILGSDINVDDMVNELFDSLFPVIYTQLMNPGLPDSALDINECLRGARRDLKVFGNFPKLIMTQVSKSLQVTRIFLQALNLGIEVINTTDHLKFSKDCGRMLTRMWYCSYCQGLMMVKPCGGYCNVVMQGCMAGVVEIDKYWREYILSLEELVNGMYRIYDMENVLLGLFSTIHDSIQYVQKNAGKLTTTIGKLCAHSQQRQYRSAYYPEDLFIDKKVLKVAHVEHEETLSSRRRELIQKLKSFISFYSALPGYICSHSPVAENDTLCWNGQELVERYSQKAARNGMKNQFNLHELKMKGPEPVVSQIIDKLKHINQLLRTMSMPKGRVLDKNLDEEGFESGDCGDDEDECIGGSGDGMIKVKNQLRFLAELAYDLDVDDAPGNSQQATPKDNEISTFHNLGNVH
EXPERIMENT NOTES: Octet QKe BLI, IgG on AHC probe, GPC3 (Sino Biological) in solution, 1:1 fit
OUTCOME MEASURE: Kd (pM)
Please state the figure in pM; there is no need to write the unit.

Q. What value of Kd has been recorded for this entry: P17-16E6 IgG (antibody, V domains shown, IgG) VH: EVQLVESGGGLVQPGGSLRLSCAASGFTFRKYAMSWVRQAPGKGLEWVSSLSASGSATYYADSVKGRFTISRDNSKNTLYLQMNSLRAEDTAVYYCAKEADYSMGWMHYYYGMDVWGQGTTVTVSS VL: QSVLTQPPSVSGAPGQRVTISCTGSSSGYDVHWYQQLPGRAPKLLIYGSNNRPSGVPDRFSGSNSGTSASLAITGLQAEDEADYYCQSYDSSLNAIFGGGTKLTVL
A. 1.33
